These data points were gathered from patent US20220221458A1.

# ASSAYED_TARGET: GII.3 VLP (norovirus GII.3 TCH strain)
# METHOD_SUMMARY: BLI (BLItz), biotin peptide on SA chip, GII.3 VLP at 1 and 0.1 mg/mL
Ends that are not written are not given here.
QUANTITY_NAME: Kd (µM)

• GKFFCH (also: spacer with Trp and biotin, letters and position not given here) [peptide of SEQ ID NO: 21, synthesized, with spacer sequence and biotin] = 107
• VMMQCP (also: spacer with Trp and biotin, letters and position not given here) [peptide of SEQ ID NO: 28, synthesized, with spacer sequence and biotin] = 218
• GRRYYI (also: spacer with Trp and biotin, letters and position not given here) [peptide of SEQ ID NO: 1, synthesized, with spacer sequence and biotin] = 6.01
